testSystem: AR transcriptional activity (Homo sapiens, UniProt P10275, T878A)
Construct: The LNCaP eGFP cell line was stably transfected with an androgen-responsive probasin-derived promoter fused to an eGFP reporter; endogenous in cells
Sequence (P10275 1-920 T878A): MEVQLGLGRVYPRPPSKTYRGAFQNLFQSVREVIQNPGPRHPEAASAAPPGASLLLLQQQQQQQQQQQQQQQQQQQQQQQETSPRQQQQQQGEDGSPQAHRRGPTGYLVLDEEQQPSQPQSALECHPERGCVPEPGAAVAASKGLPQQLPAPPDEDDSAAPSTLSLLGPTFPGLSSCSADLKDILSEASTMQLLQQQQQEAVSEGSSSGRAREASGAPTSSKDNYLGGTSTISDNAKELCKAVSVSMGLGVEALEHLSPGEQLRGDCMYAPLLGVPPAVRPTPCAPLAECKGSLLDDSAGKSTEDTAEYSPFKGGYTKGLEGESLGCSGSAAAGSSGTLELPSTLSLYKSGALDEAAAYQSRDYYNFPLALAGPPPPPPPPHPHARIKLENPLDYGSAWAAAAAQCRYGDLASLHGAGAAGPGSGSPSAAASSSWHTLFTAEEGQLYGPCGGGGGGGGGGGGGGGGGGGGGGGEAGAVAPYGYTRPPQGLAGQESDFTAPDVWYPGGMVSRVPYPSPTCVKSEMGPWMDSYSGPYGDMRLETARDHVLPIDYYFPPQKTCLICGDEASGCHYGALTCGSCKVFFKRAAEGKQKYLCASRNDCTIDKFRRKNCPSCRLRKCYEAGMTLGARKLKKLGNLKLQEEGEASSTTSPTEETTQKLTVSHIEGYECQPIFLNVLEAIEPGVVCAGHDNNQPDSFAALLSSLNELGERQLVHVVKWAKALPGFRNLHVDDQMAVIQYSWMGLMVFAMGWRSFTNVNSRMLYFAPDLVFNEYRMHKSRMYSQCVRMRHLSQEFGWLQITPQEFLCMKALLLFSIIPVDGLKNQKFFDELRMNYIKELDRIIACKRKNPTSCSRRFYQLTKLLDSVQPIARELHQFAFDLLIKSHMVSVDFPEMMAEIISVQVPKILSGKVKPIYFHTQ
measurementDescription: eGFP cellular AR transcription assay
measurementContext: LNCaP eGFP cell line
observable: log10 IC50 (log10 of the value in nM)
Record value = log10 of IC50 given in nM.

INSERT INTO measurements (compound, observable, numericreadout) VALUES
  ('Clc1ncn(-c2csc(N3[C@@H]4CC[C@H]3COC4)n2)c1Br', 'log10 IC50', 2.61),
  ('CC(C)C1CN(c2nc(-n3cc(Br)nc3Br)cs2)CCO1 (stereo not shown)', 'log10 IC50', 3.82),
  ('Brc1cn(-c2csc(N3CCOCC3C3CC3)n2)c(Br)n1 (stereo not shown)', 'log10 IC50', 2.08),
  ('Brc1cn(-c2csc(N3C[C@H]4CC[C@@H](C3)O4)n2)c(Br)n1', 'log10 IC50', 2.04),
  ('Brc1cn(-c2csc(N3CC4CC3CO4)n2)c(Br)n1 (stereo not shown)', 'log10 IC50', 3.21),
  ('CC1(C)CN(c2nc(-n3cc(Br)nc3Br)cs2)CCO1', 'log10 IC50', 2.07);

API: the following record is the query input.
Query: Give the measured log10 IC50 of Brc1cn(-c2csc(N3CCOC(c4ccccc4)C3)n2)c(Br)n1 (stereo not shown) .
Reply: 3.91
